Tested on: Enterobacter cloacae
Experiment: Activity in vitro: minimum inhibitory concentration
Assay type: cell-based
Settings: Enterobacter cloacae strain 2
Where a name gives a salt, the structure may show the parent alone.
RESULT TYPE: MIC (µg/mL)

{"columns": ["MOLECULE", "RESULT TYPE", "QUALIFIER SIGN", "OBS VALUE"],
 "data": [
  ["CO/N=C(\\C(=O)N[C@@H]1C(=O)N2C(C(=O)[O-])=C(CSc3n[nH]c(=O)c(=O)n3C)CS[C@H]12)c1c[se]c(N)n1.[Na+] [Product G]", "MIC", "=", 0.8],
  ["CO/N=C(\\C(=O)N[C@@H]1C(=O)N2C(C(=O)O)=C(CSc3nnc(C)s3)CS[C@H]12)c1c[se]c(N)n1 [Product B, sodium salt]", "MIC", "=", 1.6],
  ["CC1=C(C(=O)[O-])N2C(=O)[C@@H](NC(=O)/C(=N\\O)c3c[se]c(N)n3)[C@H]2SC1.[Na+] [Product M]", "MIC", ">", 200],
  ["CC(=O)OCC1=C(C(=O)O)N2C(=O)[C@@H](NC(=O)/C(=N\\OC(C)(C)C(=O)O)c3c[se]c(N)n3)[C@H]2SC1 [Product I, disodium salt]", "MIC", "=", 6.3],
  ["CO/N=C(\\C(=O)N[C@@H]1C(=O)N2C(C(=O)O)=C(CSc3nc(=O)c(O)nn3C)CS[C@H]12)c1c[se]c(N)n1 [Product C, disodium salt]", "MIC", "=", 3.1]
]}

###

System: Staphylococcus aureus
Assay: Activity in vitro: minimum inhibitory concentration
Type: cell-based
Settings: Staphylococcus aureus strain 3
Counter-ions that a name gives are not always drawn.
RESULT TYPE: MIC (µg/mL)

{"columns": ["COMPOUND", "MEASUREMENT UNITS", "QUALIFIER SIGN", "OBS VALUE"],
 "data": [
  ["CC(=O)OCC1=C(C(=O)O)N2C(=O)[C@@H](NC(=O)/C(=N\\OC(C)(C)C(=O)O)c3c[se]c(N)n3)[C@H]2SC1 [Product I, disodium salt]", "µg/mL", "=", 50],
  ["CO/N=C(\\C(=O)N[C@@H]1C(=O)N2C(C(=O)O)=C(C)CS[C@H]12)c1c[se]c(N)n1 [Product F, sodium salt]", "µg/mL", "=", 50],
  ["CO/N=C(\\C(=O)N[C@@H]1C(=O)N2C(C(=O)O)=C(CSc3nc(=O)c(O)nn3C)C[S+]([O-])[C@H]12)c1c[se]c(N)n1 (stereo partly drawn) [Product E, disodium salt]", "µg/mL", ">", 12],
  ["CC(C)(O/N=C(\\C(=O)N[C@@H]1C(=O)N2C(C(=O)[O-])=C(C[n+]3ccccc3)CS[C@H]12)c1c[se]c(N)n1)C(=O)O", "µg/mL", "=", 12.5],
  ["CO/N=C(\\C(=O)N[C@@H]1C(=O)N2C(C(=O)O)=C(CSc3nnc(C)s3)CS[C@H]12)c1c[se]c(N)n1 [Product B, sodium salt]", "µg/mL", "=", 0.8],
  ["CO/N=C(\\C(=O)N[C@@H]1C(=O)N2C(C(=O)[O-])=C(CSc3n[nH]c(=O)c(=O)n3C)CS[C@H]12)c1c[se]c(N)n1.[Na+]", "µg/mL", "=", 0.8]
]}
